Target: unphosphorylated STAT3 monomer (uSTAT3) SH2 domain (Homo sapiens)
Sequence (P40763 whole entry, the tested form may be a part): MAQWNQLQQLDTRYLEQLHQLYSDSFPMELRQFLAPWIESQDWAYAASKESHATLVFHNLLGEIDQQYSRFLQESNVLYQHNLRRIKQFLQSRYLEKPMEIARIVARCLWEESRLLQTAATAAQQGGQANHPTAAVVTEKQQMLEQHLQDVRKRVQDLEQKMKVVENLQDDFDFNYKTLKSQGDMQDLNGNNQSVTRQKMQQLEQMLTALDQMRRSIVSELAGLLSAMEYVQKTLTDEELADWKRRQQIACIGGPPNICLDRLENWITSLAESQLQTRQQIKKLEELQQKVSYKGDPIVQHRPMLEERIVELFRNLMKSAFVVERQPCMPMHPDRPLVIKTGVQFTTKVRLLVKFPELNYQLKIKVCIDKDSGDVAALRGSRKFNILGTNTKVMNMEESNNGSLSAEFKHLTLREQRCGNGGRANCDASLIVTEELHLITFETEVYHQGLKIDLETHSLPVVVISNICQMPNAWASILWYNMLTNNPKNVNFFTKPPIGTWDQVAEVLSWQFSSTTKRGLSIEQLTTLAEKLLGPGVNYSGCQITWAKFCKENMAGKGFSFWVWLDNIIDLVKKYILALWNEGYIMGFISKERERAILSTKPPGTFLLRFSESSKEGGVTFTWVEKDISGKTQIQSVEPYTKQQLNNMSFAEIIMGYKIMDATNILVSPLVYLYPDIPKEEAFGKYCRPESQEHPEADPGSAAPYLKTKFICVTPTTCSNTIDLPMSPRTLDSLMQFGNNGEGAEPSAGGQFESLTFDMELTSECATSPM
Experiment: Fluorescence polarisation assay for the inhibition of STAT3 dimerisation
Type: binding
Settings: 350 nM uSTAT3, 10 nM FAM-pYLPQTV, 100 μM ligand; average of triplicate
Description: Fluorescence Polarisation Assay for the Inhibition of STAT3 Dimerisation The compounds were subjected to an in vitro fluorescent polarisation (FP)-based primary PPI binding screen to assess their ability to inhibit STAT3 dimerisation by interacting with the SH2 domain. […] The assay is based on the concept that the compounds were expected to displace the surrogate peptide from the uSTAT3 resulting in a fluorescent read out. […]
Readout type: inhibition at 100 µM (%)

Previously resolved entries follow.
{"columns": ["Structure smiles string", "Unit of measurement", "inhibition at 100 µM"],
 "data": [
  ["COC(=O)c1ccc(NC(=O)c2cc(S(=O)(=O)N(C)c3ccc(C(=O)OC)cc3)c(Br)s2)cc1", "%", 20.3],
  ["COC(=O)c1ccc(N(C)S(=O)(=O)c2cc(C(=O)NCc3ccc(N4CCN(C)CC4)cc3)sc2-c2ccc(N3CCCCC3)cc2)cc1", "%", 43.7],
  ["COC(=O)c1ccc(N(C)S(=O)(=O)c2cc(C(=O)Nc3ccc4c(ccn4Cc4ccccc4)c3)sc2-c2ccc(N3CCCCC3)cc2)cc1", "%", 35.6],
  ["COC(=O)c1ccc(N(C)S(=O)(=O)c2cc(C(=O)NCc3ccc(CN4CCCCC4)cc3)sc2Br)cc1", "%", 42.3]
]}

A: COC(=O)c1ccc(N(C)S(=O)(=O)c2cc(C(=O)Nc3ccc4[nH]c(Cc5ccccc5)nc4c3)sc2Br)cc1
B: COC(=O)c1ccc(N(C)S(=O)(=O)c2cc(C(=O)Nc3ccc(N4CCOCC4)nc3)sc2Br)cc1
### Prompt Of A and B , which one carries the higher reported inhibition at 100 µM? The response must carry the label of the picked entry.
### Response A
